The reported measurements were obtained from patent US20150197564A1.

Molecular target: T1, hANGPTL3(17-460)-His (human, UniProt Q9Y5C1 17-460)
T1 construct: Bought protein (R&D Systems); also called full-length mature human ANGPTL3 with a C-terminal decahistidine tag; Human ANGPTL3 (17-460)-His
T1 sequence: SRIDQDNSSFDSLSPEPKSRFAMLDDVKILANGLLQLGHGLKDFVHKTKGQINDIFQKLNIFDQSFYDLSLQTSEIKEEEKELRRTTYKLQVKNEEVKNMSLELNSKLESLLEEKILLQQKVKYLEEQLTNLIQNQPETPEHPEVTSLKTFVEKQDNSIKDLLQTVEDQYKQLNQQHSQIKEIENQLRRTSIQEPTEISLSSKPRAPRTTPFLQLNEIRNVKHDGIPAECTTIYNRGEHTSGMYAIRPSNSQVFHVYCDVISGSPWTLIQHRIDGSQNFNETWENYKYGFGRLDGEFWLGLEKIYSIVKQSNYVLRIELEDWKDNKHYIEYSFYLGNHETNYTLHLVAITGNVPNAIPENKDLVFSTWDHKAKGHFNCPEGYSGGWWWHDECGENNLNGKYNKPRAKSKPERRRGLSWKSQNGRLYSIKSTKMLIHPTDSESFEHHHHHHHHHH
Test: Biacore cross-competition, 25C; first antibody at 25 µg/ml on captured antigen
EXPERIMENTAL_READOUT: mAb1 binding response (RU)
Numbers only; they are read as RU.

Given the entry H4H1279P (antibody, IgG4, V domains shown) VH: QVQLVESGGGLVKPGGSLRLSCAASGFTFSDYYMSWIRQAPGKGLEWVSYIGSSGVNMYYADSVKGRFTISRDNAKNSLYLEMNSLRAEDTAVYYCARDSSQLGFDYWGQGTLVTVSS VL: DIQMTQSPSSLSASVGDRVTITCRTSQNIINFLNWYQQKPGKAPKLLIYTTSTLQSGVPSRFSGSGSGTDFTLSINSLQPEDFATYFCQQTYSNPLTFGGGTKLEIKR , report its measured mAb1 binding response (RU).
45
